- experiment_summary: Half life of the compound in simulated gastric fluid by HPLC analysis
- Format: ADME
experimental_endpoint: half-life

CO[C@@H]1[C@H](OP(=O)(S)OC[C@H]2O[C@@H](n3cnc4c(N)ncnc43)C[C@@H]2O)[C@@H](CO)O[C@H]1n1ccc(=O)[nH]c1=O (some centres not stated) ... < 0.25 h

// moving on: another record for half-life
Prompt: I would be grateful if you could share the reported half-life for CO[C@@H]1[C@H](OP(=O)(OC[C@H]2O[C@@H](n3cnc4c(N)ncnc43)C[C@@H]2O)SCOC(=O)OC(C)C)[C@@H](CO)O[C@H]1n1ccc(=O)[nH]c1=O (some centres not stated) .
Completion: > 3 h

* * *

- experiment_summary: Time for almost complete conversion of the compound to 1 in simulated intestinal fluid by HPLC analysis
experimental_endpoint: time for complete conversion (min)
Numbers only, in min.

Prompt: I would be grateful if you could share the reported time for complete conversion for CO[C@@H]1[C@H](OP(=O)(OC[C@H]2O[C@@H](n3cnc4c(N)ncnc43)C[C@@H]2O)SCOC(=O)OC(C)C)[C@@H](CO)O[C@H]1n1ccc(=O)[nH]c1=O (stereo partly specified) .
Completion: 180
